Assay: NCI Yeast Anticancer Drug Screen. Data for the rad52 strain (AID 147);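 further: 0% = growth of vehicle-treated control cultures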
Conditions: S. cerevisiae rad52 mutant growth inhibition; at 3.7 µM; stronger effect = higher value
Procedure: Growth inhibition of yeast strains with defined genetic alterations is measured as a screen for potential anti-cancer activity. Selected strains with alterations in DNA damage repair or cell cycle control were exposed to compounds and growth inhibition was measured relative to vehicle treated controls. The strain used in this assay is rad52
Compounds without any hit were thinned out: in the full panel of roughly 79,000, 15% have a hit.
The following compounds are shown together with reported growth inhibition values.
reported-property: growth inhibition (%)

smiles-repr	measured-number
Cc1cc(O)c(C(C)C)cc1C1(c2cc(C(C)C)c(O)cc2C)OC(=O)c2ccccc21	-3
O=[N+]([O-])c1cc(Cl)cnc1Br	46
CN1CCN(C(=O)/C=C/C(=O)c2ccccc2)CC1	11
NC1=NNC2(C(N)=N1)c1ccccc1-c1ccccc12	-14
O=[N+]([O-])c1ccc(N/N=C/Cc2ccccc2)c([N+](=O)[O-])c1	-4
COC(=O)Nc1cn2ccc(C(Cl)=C(Cl)Cl)cc2n1	-17
CCCCCCSc1ncnc2[nH]ncc12	-1
Cc1nc2ccc(N=NN(C)C)cc2[nH]1	8
Nc1cc(N)c(N=Nc2cccc3c(S(=O)(=O)O)cccc23)cc1N=Nc1cc([N+](=O)[O-])ccc1O	26
O=C1C=C(Cl)C(=O)N1c1cccc(Cl)c1	89
COc1ccc(/C=C/c2sc3ccccc3[n+]2CCCCI)cc1OC	1

====

experiment: NCI Yeast Anticancer Drug Screen. Data for the cln2 rad14 strain (AID 165);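 further: 0% = growth equal to vehicle treated cultures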; details: S. cerevisiae cln2 rad14 strain, at 5.0 µM (retest, dose inferred, filed as 0.5)
Compounds without any hit were thinned out: in the full panel of roughly 79,000, 15% have a hit. The source made the active and inactive calls. Cut-off read from the data, not from the text of the source: active = growth inhibition above about 70%; inactive = the rest.
Outcomes: active, inactive

molecule	label-value
CCCCC(CC)C(=O)[O][Sn]([CH2]CCC)([CH2]CCC)[O]C(=O)C(CC)CCCC (centres undefined)	inactive
Cc1cc(S(=O)(=O)Nc2nnc3cnc4ccccc4n23)c(S)cc1Cl	inactive
CC(C)(CCCCC(C)(C)[N+](C)(C)C)[N+](C)(C)C	inactive
O=C(Nc1ccc(Cl)cc1)Nc1nnc2nc(C(C(=O)c3cccc([N+](=O)[O-])c3Cl)c3nc4nnc(NC(=O)Nc5ccc(Cl)cc5)n4[nH]c3=O)c(=O)[nH]n12	inactive
CN(C)CCNC(=O)c1cccc2cc([N+](=O)[O-])ccc12	inactive
O=C(/C=C\c1cccc(C(F)(F)F)c1)c1ccccc1	inactive
CN(C)CCNC(=O)c1cccc2c1Oc1c(cccc1[N+](=O)[O-])O2	inactive
Clc1ccc(NCNC2Nc3ccccc3N2)cc1Cl	inactive
O=C1C(=O)c2ccccc2C(O)=C1C(C1=C(O)c2ccccc2C(=O)C1=O)c1ccc(Cl)cc1	inactive
COC(=O)/C=C(/C(=O)OC)C(Cl)(Cl)Cl	inactive
O=C1OC(C2=CC(=O)c3ccccc3C2=O)C(Cl)=C1Cl (centres undefined)	inactive
CCOC(=O)[C@H]1Nc2ccc(OC)cc2C2c3ccccc3CC21 (some centres undefined)	inactive
CCCCCCCCCCCC(O)S(=O)(=O)O (centres undefined)	inactive
Cc1ccccc1N=Cc1cc(Cl)ccc1O	inactive
CCC1(OC(=O)CN2CCN(CCO)CC2)C(=O)OCc2c1cc1n(c2=O)Cc2cc3ccccc3nc2-1 (centres undefined)	inactive
COc1cccc2c1C(=O)c1c(O)c3c(c(O)c1C2=O)CC(O)(C(O)CO)CC3OC1CC(N2CCOCC2)C(O)C(C)O1 (centres undefined)	inactive
O=C(C[n+]1ccc2ccccc2c1)c1ccc2ccccc2c1	inactive
Cc1ccc2c3ccc4c(c3n(C)c2c1)C(=O)C=CC4=O	inactive
COc1cc(/C=N/Nc2nnc3c4ccccc4c4ncccc4c3n2)cc(OC)c1OC	inactive
CN(C)c1nc(=Nc2cccc(Cl)c2)ss1	inactive
CCOC(=O)C#Cc1ccc([N+](=O)[O-])cc1	inactive
CC(C)(C)N=C(NO)c1ccccc1	inactive
COc1cc2ccnc(-c3c4ccccc4c(N)c4c(OC)c(OC)ccc34)c2cc1OC	inactive
Nc1ccc2c(c1)C(=O)c1ccc(F)cc1-2	inactive
CCCOC(=O)C(F)C(Br)C(=O)OCCC (centres undefined)	inactive
CN(C)N=Nc1ccccc1C(=O)NC#N	inactive
CN1CCN(C(=O)/C=C/C(=O)c2ccccc2)CC1	inactive
O=[N+]([O-])c1cccc2nc3ccccc3c(NCCCn3ccnc3[N+](=O)[O-])c12	inactive
Nc1ncc(-c2ccc(Br)cc2)s1	inactive
CCn1c(O)c(C=Nc2ccccc2)s/c1=N/Nc1nc(-c2ccccc2)cs1	inactive
COC(=O)C1=C(C(=O)OC)C(C(=O)OC)C(C(=O)OC)C(C(=O)OC)(C(=O)OC)C(C(=O)OC)=C1C(=O)OC (centres undefined)	active
O=c1[nH]c(-c2ccccc2)nc2c1sc1nc3ccccc3n12	inactive
CCN(CC)CCOc1cc(C)c2cc(Cc3ccccc3)ccc2n1	inactive
NC(=S)NC(=S)Nc1ccccc1	inactive
O=C(CC(C(=O)O)N1CCOCC1)c1ccccc1 (centres undefined)	active
COc1ccc(C(=O)c2ccccc2C(=O)c2ccccc2OC)cc1	inactive
Cc1ccc2c(c1)C1(SC(C)C(=O)N1c1ccc(Cl)cc1)C(=O)N2 (centres undefined)	inactive
COc1ccc(C(NCCNC(c2ccc(OC)c(OC)c2)c2cc3c(cc2O)OCO3)c2cc3c(cc2O)OCO3)cc1OC (centres undefined)	inactive
COc1ccc(C2C3=C(COC3=O)OC(C)(C)Oc3cc4c(cc32)OCO4)cc1OC (centres undefined)	inactive
NNC(=O)CCc1cc2ccccc2c2ccccc12	inactive
CN(C)c1ccc2c(SCC(=O)OCC(=O)[C@@]3(O)CC[C@H]4[C@@H]5CCC6=CC(=O)C=C[C@]6(C)[C@H]5C(=O)C[C@@]43C)c3ccc(N(C)C)cc3nc2c1	inactive
CN(C)Cc1cc(N=Nc2ccc(Cl)cc2)ccc1OC(=O)c1ccccc1	inactive
S=C1SCN(C2CCCCC2)CN1C1CCCCC1	inactive
CC(C)c1ccc(NC(=S)NC(=O)c2ccccc2)cc1	inactive
